Biological target: T1, monoclonal antibody 3C4
T1 construct: also called mAb 3C4; 3C4 (3CY)
T1 sequence (VH, as listed by the source, chain 1 of 2): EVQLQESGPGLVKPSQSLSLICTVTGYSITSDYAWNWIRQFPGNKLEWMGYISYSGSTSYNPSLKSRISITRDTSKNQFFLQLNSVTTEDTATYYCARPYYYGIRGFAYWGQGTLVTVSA
T1 sequence (VL, as listed by the source, chain 2 of 2): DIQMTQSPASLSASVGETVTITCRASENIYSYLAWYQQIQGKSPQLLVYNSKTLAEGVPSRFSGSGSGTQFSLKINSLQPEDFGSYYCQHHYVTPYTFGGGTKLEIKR
Assay: phage ELISA, coated mAb 3C4, 10^9 phagemid per well
Positions of bridges follow the written chain, without caps; N, C: chain ends. No end group written: not given here.
test_readout: ELISA (absorbance units)
Give the number; absorbance units is assumed, so skip it.

Example cases with answers are listed next.
1. CSLFYLWDQDRCS (disulfide 1-12 (inferred); also: displayed on phage (phagemid), coat fusion not given here) [phagemid CS1-2p (phage-displayed disulfide cyclized 13 mer peptide)] | 0.224
2. CSGLYPWDYFMCS (disulfide 1-12 (inferred); also: displayed on phage (phagemid)) [phagemid CS1-29p (phage-displayed disulfide cyclized 13 mer peptide)] | 0.189

Next, consider the following binder.
Given item CSFRYQWDMFRCS (disulfide 1-12 (inferred); also: displayed on phage (phagemid)) [phagemid CS1-11p (phage-displayed disulfide cyclized 13 mer peptide)] , the value recorded as its ELISA (absorbance units) is 0.559

The origin of these recorded values is patent US20140147868A1.
